Please go through the items and note down their Reactivity (OD492).
biological target: biotinylated HCV core peptide 151-171 (Peptide 3) (HCV-1); assay: EIA, captured mAb
Give the value, in units of OD, as a plain number.

Enquiry: Requested field: Reactivity (OD492). Item: HCV 208A-159 (antibody, V domains shown) VH: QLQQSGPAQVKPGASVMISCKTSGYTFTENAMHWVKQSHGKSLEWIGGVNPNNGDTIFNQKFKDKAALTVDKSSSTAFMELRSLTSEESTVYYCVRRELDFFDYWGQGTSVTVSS VL: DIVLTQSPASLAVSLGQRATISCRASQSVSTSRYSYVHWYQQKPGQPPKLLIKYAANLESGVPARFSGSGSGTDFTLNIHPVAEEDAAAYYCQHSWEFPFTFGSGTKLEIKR
Return: 0.19

Enquiry: What measured Reactivity (OD492) goes with HCV 208B-471 (antibody, V domains shown) VH: QGQLQQSGPVLVKPGASEILYCKTSGFTFSSTYISWLKQKPGQSLEWIAWIYAGTGATNYNQKFTGKAQLTVDASSNTAYMHFSGLTPEDSAIYYCAISGAGVYWGQGTLVTVSA VL: DVVMTQTPLSLPVSLGDQASISCRSSQSLLHSNGNTYLEWYLQKPGQSPNLLIYNVSNRFSGVPDRFSGSGSGTDFALKISRVGAEDLGVYYCFQGSHVPLTFGAGTKLELKR ?
Return: 0.08
